Value source: paper PMC9391306

# TESTED_ON: PARP1 L698A/L701A (UniProt P09874 1-1014, L698A;L701A)
# Sequence (P09874 whole entry L698A/L701A): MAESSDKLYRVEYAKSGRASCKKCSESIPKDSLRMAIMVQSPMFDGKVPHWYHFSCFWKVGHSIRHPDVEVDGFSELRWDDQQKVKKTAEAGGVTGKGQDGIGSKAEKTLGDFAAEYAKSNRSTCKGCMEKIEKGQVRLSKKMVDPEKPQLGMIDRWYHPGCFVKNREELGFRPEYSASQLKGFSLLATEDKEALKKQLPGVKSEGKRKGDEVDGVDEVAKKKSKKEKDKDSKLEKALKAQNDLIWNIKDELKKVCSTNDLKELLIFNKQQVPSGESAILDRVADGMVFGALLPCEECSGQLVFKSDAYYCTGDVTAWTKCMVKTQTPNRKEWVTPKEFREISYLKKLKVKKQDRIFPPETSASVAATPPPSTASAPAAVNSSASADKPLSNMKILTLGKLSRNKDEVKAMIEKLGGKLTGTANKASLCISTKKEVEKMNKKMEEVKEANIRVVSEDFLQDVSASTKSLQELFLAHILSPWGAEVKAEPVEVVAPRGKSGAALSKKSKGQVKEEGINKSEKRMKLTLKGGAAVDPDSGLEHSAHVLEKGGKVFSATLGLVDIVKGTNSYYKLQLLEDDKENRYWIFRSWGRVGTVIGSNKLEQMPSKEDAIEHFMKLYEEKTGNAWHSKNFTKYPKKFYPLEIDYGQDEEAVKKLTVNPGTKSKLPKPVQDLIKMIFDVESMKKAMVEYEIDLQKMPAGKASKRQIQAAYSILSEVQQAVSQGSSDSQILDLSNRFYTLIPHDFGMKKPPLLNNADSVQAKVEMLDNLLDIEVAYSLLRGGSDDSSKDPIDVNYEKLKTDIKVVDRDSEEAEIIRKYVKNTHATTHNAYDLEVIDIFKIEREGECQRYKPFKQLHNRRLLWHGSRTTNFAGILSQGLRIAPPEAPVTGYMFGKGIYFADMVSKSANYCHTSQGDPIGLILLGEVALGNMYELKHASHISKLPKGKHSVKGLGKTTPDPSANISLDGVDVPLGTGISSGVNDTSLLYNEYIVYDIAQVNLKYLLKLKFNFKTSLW
# PROTOCOL_TEXT: fluorescence polarization
VALUE_TYPE: Kd (nM)
Report the figure in nM without appending any unit label.

Recorded Kd for 18-bp DSB duplex (dsDNA) DNA 1: GGGTTGCGGCCGCTTGGG DNA 2: CCCAAGCGGCCGCAACCC , please?
15.3
